- measurement_target: rat Adrenergic, Alpha 1, Non-selective Receptor (Adra1), Adra1a (gene 29412) (UniProt P43140)
- Sequence (P43140 whole entry, looked up): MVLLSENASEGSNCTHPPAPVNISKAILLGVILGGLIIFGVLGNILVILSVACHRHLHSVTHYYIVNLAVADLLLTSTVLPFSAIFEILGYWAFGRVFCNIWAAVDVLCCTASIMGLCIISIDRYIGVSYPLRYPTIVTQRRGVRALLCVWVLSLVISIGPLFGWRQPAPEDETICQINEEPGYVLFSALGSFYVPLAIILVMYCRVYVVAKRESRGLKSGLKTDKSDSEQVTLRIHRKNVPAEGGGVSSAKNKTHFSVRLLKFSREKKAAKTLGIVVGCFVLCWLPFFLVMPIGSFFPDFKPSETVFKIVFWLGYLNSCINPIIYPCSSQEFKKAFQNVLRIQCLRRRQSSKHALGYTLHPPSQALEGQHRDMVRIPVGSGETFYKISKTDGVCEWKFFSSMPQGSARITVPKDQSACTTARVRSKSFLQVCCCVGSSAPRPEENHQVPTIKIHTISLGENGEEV
- experimental_protocol: NVS_GPCR_rAdra1_NonSelective: NovaScreen (NVS) G Protein-Coupled Receptor Assay for rat Adrenergic, Alpha 1, Non-selective Receptor (Adra1) (AID 2283289)
Records with an inconclusive call do not appear. Active and inactive are the calls of the source. How the source made its calls: active means hit-call score of the fitted dose curve at least 0.9, where 1 is the maximum; inconclusive means response in the unintended direction; inactive means score below 0.9.
# valid calls are active, inactive; nothing else

O=C(N[C@H](c1ccccc1)[C@@H]1CN2CCC1CC2)c1c(Cl)ccc(C(F)(F)F)c1Cl    active

For this molecule, state the assay outcome: CCOC(=O)[C@]1(c2ccccc2)Oc2ccccc2[C@@H]1N
active

For this molecule, state the assay outcome: CCC[CH2][Sn]([Cl])([CH2]CCC)[CH2]CCC
active

For this molecule, state the assay outcome: O=C(Oc1ccc(Br)cc1)N1CCN2CCC1CC2
inactive
